Reported values of efflux ratio for individual entries
# Tested on: human MDR1 P-gp
# Assay Text: Efflux in MDCK cells transfected with the human MDR1 gene (MDCK-PGP permeability)
# Assay type: in vitro ADME, canine
# Setup Conditions: dog, PEBA/PEAB, pH 7.4, 37° C.
Measured Parameter: efflux ratio

>>> quantitative_result("Cc1nnn(-c2ccc(C(F)F)cc2)c1COc1ccc(-n2cnc(Cl)c2)nn1 [Example 18]")
1.1
>>> quantitative_result("Cc1nnn(-c2ccc(C(F)F)cc2)c1COc1ccc(-c2cnn(C3CC3)c2)nn1 [Example 9]")
0.8
>>> quantitative_result("Cc1ncn(-c2ccc(OCc3c(C)nnn3-c3ccc(C(F)F)cc3)nn2)n1 [Example 33]")
0.9
>>> quantitative_result("Cc1nnn(-c2ccc(C(F)F)cc2)c1COc1ccc(-n2ccc(C#N)n2)nn1 [Example 20]")
0.6
